- Tested on: larva of Spodoptera litura
- protocol_summary: Test against larva of Spodoptera litura (leaf dip, sweet potato leaves)
- Assay type: in vivo
- test_context: 20 ppm concentration of effective component; third instar larvae on treated sweet potato leaves; after 7 days; 25° C.
measurement_kind: rate of death (%)

>>> recorded_result("CSCC(C)NC(=O)c1c(OS(C)(=O)=O)cccc1C(=O)Nc1ccc(C(F)(C(F)(F)F)C(F)(F)F)cc1C (centres unmarked) [compound 7]")
100
>>> recorded_result("CSCC(C)NC(=O)c1c(OS(C)(=O)=O)cccc1C(=O)Nc1ccc(C(F)(C(F)(F)F)C(F)(F)F)cc1 (centres unmarked) [compound 5]")
100
>>> recorded_result("CCS(=O)(=O)Oc1cccc(C(=O)Nc2ccc(C(F)(C(F)(F)F)C(F)(F)F)cc2C)c1C(=O)NC(C)(C)CSC [compound 17]")
100
>>> recorded_result("CSCC(C)(C)NC(=O)c1c(OS(C)(=O)=O)cccc1C(=O)Nc1ccc(Cl)c(Cl)c1Cl [compound 24]")
100
>>> recorded_result("CSCC(C)NC(=O)c1c(OS(=O)(=O)C(F)(F)F)cccc1C(=O)Nc1ccc(C(F)(C(F)(F)F)C(F)(F)F)cc1C (centres unmarked) [compound 21]")
100
>>> recorded_result("Cc1cc(C(F)(C(F)(F)F)C(F)(F)F)ccc1NC(=O)c1cccc(OS(C)(=O)=O)c1C(=O)NC(C)(C)C[S+](C)[O-] (centres unmarked) [compound 11]")
100
>>> recorded_result("CSCC(C)NC(=O)c1c(OS(C)(=O)=O)cccc1C(=O)Nc1ccc(OC(F)(F)F)cc1C (centres unmarked) [compound 6]")
100
>>> recorded_result("CCS(=O)(=O)Oc1cccc(C(=O)Nc2ccc(C(F)(C(F)(F)F)C(F)(F)F)cc2C)c1C(=O)NC(C)CSC (centres unmarked) [compound 14]")
100

###

- Tested on: larva of Spodoptera litura
- protocol_summary: Test against larva of Spodoptera litura (leaf dip, sweet potato leaves)
- Type: in vivo
- test_context: 20 ppm concentration of effective component; third instar larvae on treated sweet potato leaves; after 7 days; 25° C.
measurement_kind: rate of death (%)

>>> recorded_result("CSCC(C)(C)NC(=O)c1c(OS(C)(=O)=O)cccc1C(=O)Nc1ccc(C(F)(C(F)(F)F)C(F)(F)F)cc1C [compound 10]")
100
>>> recorded_result("Cc1cc(C(F)(C(F)(F)F)C(F)(F)F)ccc1NC(=O)c1cccc(OS(C)(=O)=O)c1C(=O)NC(C)(C)CS(C)(=O)=O [compound 12]")
100
>>> recorded_result("Cc1cc(C(F)(C(F)(F)F)C(F)(F)F)ccc1NC(=O)c1cccc(OS(C)(=O)=O)c1C(=O)NC(C)C [compound no. 1]")
100

Recorded values, source patent US7132455B2.
